Numbers sourced from patent US20200270309A1.

Quick list: MRT inf per entry.
# assayDetails: Half-lives and pharmacokinetic parameters of polypeptides vs HM-1
# studyConditions: in vivo
Peptide text beside a SMILES is read from it. * marks the point of attachment. X29 = O=C1C=CC(=O)N1CCOCCOCCOCCOCCOCCOCCCC(=O)*; X1 = O=C1C=CC(=O)N1CCOCCCC(=O)*
metricName: MRT inf (h)

compound	unitAnnotation	reportedMeasurement
C[C@H](NC(=O)CNC(=O)[C@H](CCCNC(=N)N)NC(=O)CCCOCCOCCOCCOCCOCCOCCN1C(=O)C=CC1=O)C(=O)N[C@@H](CC(=O)O)C(=O)N[C@@H](CCCNC(=N)N)C(=O)N[C@@H](C)C(=O)NCC(=O)NCC(=O)NCC(=O)NCC(=O)N[C@@H](CCCNC(=N)N)C(=O)NCC(=O)N[C@@H](CC(=O)O)C(=O)O [X86] (X29-RGADRAGGGGRGD-OH)	h	46.2
C[C@H](NC(=O)CNC(=O)[C@H](CCCNC(=N)N)NC(=O)CCCOCCN1C(=O)C=CC1=O)C(=O)N[C@@H](CC(=O)O)C(=O)N[C@@H](CCCNC(=N)N)C(=O)N[C@@H](C)C(=O)NCC(=O)NCC(=O)NCC(=O)NCC(=O)N[C@@H](CCCNC(=N)N)C(=O)NCC(=O)N[C@@H](CC(=O)O)C(=O)O [X51] (X1-RGADRAGGGGRGD-OH)	h	58.1
